- System: HT29 colon
- Test Method Notes: NCI-60 one-dose screen, 48 h
- Stated Conditions: 10 µM unless noted
Compounds without any hit were thinned out: in the full panel of roughly 83,000, 20% have a hit. The source made the active and inactive calls. Rule for the calls: active = growth percent below 10; inactive = the rest.
Valid outcomes are listed here; reply with one: active, inactive

Reference set, count: 10
input: Status in this test for CN(C)c1ccc(/C=C\c2ccnc3ccccc23)cc1 ?
output: inactive

input: State the result this test recorded for CCOc1cccc(C2CC(=O)Nc3cc4c(cc32)OCO4)c1 (stereo not drawn) .
output: inactive

input: Which result was noted for this compound in the test: O=C(Cn1ccnc1)NC(c1ccccc1)c1ccccc1
output: inactive

input: Hi team, can someone confirm the assay call for O=C1C(Cl)=C(N=Nc2c(Cl)c(O)c3ccccc3c2O)C(=O)c2ccccc21 ?
output: inactive

input: Which result was noted for this compound in the test: Cc1cc(C)n2nc(SCC(=O)Nc3sc4c(c3C(N)=O)CCC4)nc2n1
output: inactive

input: Test call for this compound, please: CSc1nc2c(c(=O)n1C)C(c1ccccc1)C1=C(N2)/C(=C/c2ccccc2)CCC1 (stereo not drawn)
output: inactive

input: Returns: the outcome recorded for COc1ccc2nc(-c3ccc(-n4cncc4-c4ccc(OC)c(N)c4)cc3)sc2c1 in this assay.
output: inactive

input: Please share the test call associated with O=C(Nc1cccc2ccccc12)c1cc2c(cc1Br)OCO2 .
output: inactive

input: GET /call?item= COc1ccc(-c2c(N)noc2-c2cc(OC)c3c(c2)OCCO3)cc1 returns the recorded outcome of this test.
output: active

input: Assay outcome for CC1=CC(=O)C(C(C)=Nc2ccccc2Cl)C(=O)O1 (stereo not drawn) : what was it?
output: inactive

More entries:
input: Hi, do you know how CN=C(NC)N/N=C(C)\C=N\NC(=NC)NC came out in this test?
output: inactive

input: Per the assay record, what outcome was assigned to c1ccc2c(c1)[nH]c1c2cc[n+]2cc3c(cc12)CCCC3 ?
output: inactive

input: Status in this test for CO[C@H]1/C=C/O[C@@]2(C)Oc3c(C)c(O)c4c(O)c(c(/C=N/N5CCN(C)CC5)c(O)c4c3C2=O)NC(=O)/C(C)=C\C=C\C(C)[C@H](O)[C@@H](C)[C@@H](O)[C@@H](C)[C@@H](OC(C)=O)[C@@H]1C (stereo partly drawn) ?
output: inactive

input: // param item: Oc1[nH]c2ccc(Cl)cc2c1/C=c1/ccc2c(c1)N=C(c1ccc(C(F)(F)F)cc1)N=2 ; yields the recorded call
output: inactive

input: Please state the recorded outcome for this compound: Oc1ccc(-c2nn(-c3ccccc3)cc2-c2nc3ccccc3s2)cc1
output: inactive

input: Just curious, what result did Cc1[nH]n(C(N)=S)c(=O)c1N=Nc1ccc(F)c(Cl)c1 get here?
output: inactive

input: Hi team, can someone confirm the assay call for Nc1nc(SCC2(CCl)COC2)c2[nH]cnc2n1 ?
output: inactive

input: Record lookup: outcome of this test for Cn1cnc([N+](=O)[O-])c1S(=O)(=O)Oc1ccc(Cl)cc1 ?
output: active

input: Field: outcome | Entry: NNC(=O)NO
output: inactive

input: For this compound, state the assay outcome: O=C(/C(=C/c1cccc([N+](=O)[O-])c1)c1ccccc1)c1ccccc1
output: inactive

input: Hi, sorry to bother you, what did the test record for Cc1nn(-c2ccc(Cl)cc2)c2nc3c(nc12)C(=O)c1ccccc1-3 ?
output: inactive

input: Give the logged outcome of this assay for the following compound: CCN(CC)c1ccc(C(O)C2=CC(=O)c3ccccc3C2=O)cc1 (stereo not drawn)
output: active

input: Could you check what this test reported for COc1ccc(-c2cc(C(=O)Nc3nc4cc(C)c(C)cc4s3)nc3cc(-c4ccccc4)nn23)cc1OC ?
output: inactive

input: Per the records of this test, what outcome belongs to COc1ccc2[nH]cc(/C=C3/C(=O)Nc4ccc(Cl)cc43)c2c1 ?
output: inactive

input: Returns: the outcome recorded for O=c1[nH]c(Cl)nc2c1cnn2-c1ccccc1 in this assay.
output: inactive

input: Kindly provide the recorded test outcome for the following compound: N#Cc1c2ccccc2c2n1-c1ccccc1OC(c1ccccc1)C2=O (stereo not drawn)
output: inactive

input: Answer briefly: the call reported for O=C(Nc1ccccc1Cl)c1cnc2ccc(C3CCNCC3)cn12 in this assay.
output: inactive
